The compounds below have reported Ki for Human immunodeficiency virus type 1 protease (Human immunodeficiency virus 1).
Numeric only. Scale: nM

Task: Data request, read-out Ki, for "CC[C@H](C)[C@H](NC(=O)[C@@H]1CCCN1C[C@H](O)[C@H]1Cc2ccc(cc2)OCC(=O)N[C@@H](Cc2ccc(O)cc2)C(=O)N[C@@H](CC(N)=O)C(=O)N1)C(=O)N[C@H](C(N)=O)C(C)C"
Output: 11

Task: Data request, read-out Ki, for CC[C@H](C)[C@H](NC(=O)[C@@H]1CCCN1CC(O)[C@H]1Cc2ccc(cc2)OCC(=O)N[C@H](CCC(N)=O)C(=O)N[C@@H](CC(N)=O)C(=O)N1)C(=O)N[C@H](C(N)=O)C(C)C (mixture of isomers)
Output: 4

Task: Data request, read-out Ki, for NC(=O)CC1NC(=O)CCCOc2ccc(cc2)C[C@H]([C@H](O)CN2CCC[C@H]2C(N)=O)NC1=O (stereo partly drawn)
Output: 16000

---

Consider the following compounds; for each one, report its log10 of Ki.
Plainly stated, the numbers are log10 of Ki given in µM.

Task: Please provide the recorded log10 of Ki for "CC[C@H](C)[C@H](NC(=O)[C@@H]1CCCN1C[C@H](O)[C@@H]1CSSC[C@@H](NC(C)=O)C(=O)NCC(=O)N[C@@H](CC(N)=O)C(=O)N1)C(=O)N[C@H](C(N)=O)C(C)C" , tested on Human immunodeficiency virus type 1 protease (Human immunodeficiency virus 1).
Output: -0.60

Task: Please provide the recorded log10 of Ki for "CC(C)CN(CC(=O)NC(C)(C)C)C[C@@H](O)[C@H]1Cc2ccc(cc2)OCCCC(=O)N[C@@H](CC(N)=O)C(=O)N1" , tested on Human immunodeficiency virus type 1 protease (Human immunodeficiency virus 1).
Output: -0.60

Task: Please provide the recorded log10 of Ki for CC[C@H](C)[C@H](NC(=O)[C@@H]1CCCN1C[C@@H](O)[C@H]1Cc2ccc(cc2)OCCCC(=O)NC(CC(N)=O)C(=O)N1)C(N)=O (stereo partly specified) , tested on Human immunodeficiency virus type 1 protease (Human immunodeficiency virus 1).
Output: 0.45

Task: Please provide the recorded log10 of Ki for "CC(C)[C@@H]1NC(=O)CCCCOc2ccc(cc2)C[C@H]([C@H](O)CN2CCCC[C@H]2C(=O)NC(C)(C)C)NC1=O" , tested on Human immunodeficiency virus type 1 protease (Human immunodeficiency virus 1).
Output: -1.77

Task: Please provide the recorded log10 of Ki for "CC[C@@H](C)[C@@H]1NC(=O)[C@@H](NC[C@@H](O)[C@@H]2Cc3ccc(cc3)OCCCCC(=O)N[C@@H](C(C)C)C(=O)N2)Cc2ccc(cc2)OCCCNC1=O" , tested on Human immunodeficiency virus type 1 protease (Human immunodeficiency virus 1).
Output: -2.52

Task: Please provide the recorded log10 of Ki for "CC(C)(C)NC(=O)CN(Cc1ccccc1)C[C@@H](O)[C@H]1Cc2ccc(cc2)OCCCC(=O)N[C@@H](CC(N)=O)C(=O)N1" , tested on Human immunodeficiency virus type 1 protease (Human immunodeficiency virus 1).
Output: -0.36

---

target: Human immunodeficiency virus type 1 protease (Human immunodeficiency virus 1, UniProt Q72874)
Starred links: 1 amine or outer side, 2 acyl side, 3 side chain; linkers in the order of their positions; H or OH if unused. Non-standard residues stand in square brackets, D forms with d. Residues, ends and D or L forms follow the SMILES beside them. Pheψ(R-CH(OH)CH2N)Pro = O=C([C@@H]1CCCN1C[C@@H](O)[C@H](Cc1ccccc1)N[*:1])[*:2]
outcome-measure: pKi
The meaning of pKi here: minus log10 of the concentration in molar units.

Task: Data request, read-out pKi, for NC(=O)CC1NC(=O)CCCOc2ccc(cc2)C[C@H]([C@@H](O)CN2CCC[C@H]2C(N)=O)NC1=O (stereo partly specified)
Output: 4.44

Task: Data request, read-out pKi, for CC(C)(C)NC(=O)[C@H](Cc1ccccc1)NCC(O)[C@@H]1Cc2ccc(cc2)OCCCC(=O)NC(CC(N)=O)C(=O)N1 (mixture of isomers)
Output: 4.99

Task: Data request, read-out pKi, for CC[C@H](C)[C@H](NC(=O)[C@@H]1CCCN1C[C@@H](O)[C@H](Cc1ccccc1)NC(=O)[C@H](CC(N)=O)NC(=O)[C@H](CC(C)C)NC(C)=O)C(=O)N[C@H](C(N)=O)C(C)C (Ac-LN[Pheψ(R-CH(OH)CH2N)Pro]IV-NH2)
Output: 7.74

Task: Data request, read-out pKi, for "CC(C)CN(CC(=O)NC(C)(C)C)C[C@H](O)[C@H]1Cc2ccc(cc2)OCCCC(=O)N[C@@H](CC(N)=O)C(=O)N1"
Output: 6.42

Task: Data request, read-out pKi, for CC[C@H](C)[C@H](NC(=O)[C@@H]1CCCN1C[C@@H](O)[C@H]1Cc2ccc(cc2)OCCCCC(=O)NC(CC(N)=O)C(=O)N1)C(=O)N[C@H](C(N)=O)C(C)C (stereo partly specified)
Output: 7.13

Task: Data request, read-out pKi, for CC[C@H](C)[C@H](NC(=O)[C@@H]1CCCN1C[C@H](O)[C@H]1Cc2ccc(cc2)OCCCCC(=O)NC(CC(N)=O)C(=O)N1)C(=O)N[C@H](C(N)=O)C(C)C (stereo partly specified)
Output: 8.10
